Tested on: mice
Experiment: locomotor activity, 8-h time course protocol
Assay type: in vivo
Conditions: duration of locomotor activity
Endpoint label: Locomotor Activity 8-Hour Time, min Period, length (min)

- Molecule: "CC(NC(C)(C)C)C(=O)c1cc(F)cc(F)c1 (centres unmarked)"
  Units of measure: "min"
  Experimental result: 280
- Molecule: "CCCC(NC(C)(C)C)C(=O)c1ccc(Cl)c(Cl)c1 (centres unmarked)"
  Units of measure: "min"
  Experimental result: 470

----------
# Locomotor Activity 8-Hour Time, min Period, max values compiled below
Test system: mice
Assay: locomotor activity, 8-h time course protocol
Assay type: in vivo
Conditions: time period of maximum effect
Endpoint label: Locomotor Activity 8-Hour Time, min Period, max

- Compound: "CC(NC(C)(C)C)C(=O)c1cccc(Cl)c1 (racemic) [Compound 2a, reference compound]"
  Experimental result: "0 to 30 min"
- Compound: "CC(NC(C)(C)C)C(=O)c1cccc(Br)c1 (stereo not shown) [Compound 2d]"
  Experimental result: "0 to 30 min"
- Compound: "CC(C(=O)c1cccc(Cl)c1)N(C)C (stereo not shown) [Compound 2dd]"
  Experimental result: "90 to 120 min"
- Compound: "CC(C)NC(C)C(=O)c1cccc(Cl)c1 (stereo not shown) [Compound 2w]"
  Experimental result: "20 to 50 min"
- Compound: "Cc1cc(C(=O)C(C)NC(C)(C)C)ccc1Br (stereo not shown) [Compound 2l]"
  Experimental result: "50 to 80 min"
- Compound: "CCCC(NC(C)(C)C)C(=O)c1ccc(Cl)c(Cl)c1 (stereo not shown) [Compound 2bb]"
  Experimental result: "0 to 30 min"
- Compound: "CCCCCCC(NC(C)(C)C)C(=O)c1cccc(Cl)c1 (stereo not shown) [Compound 2s]"
  Experimental result: "110 to 140 min"
- Compound: "CCN(CC)C(C)C(=O)c1cccc(Cl)c1 (stereo not shown) [Compound 2ee]"
  Experimental result: "20 to 50 min"
- Compound: "CC(NC(C)(C)C)C(=O)c1cc(F)cc(F)c1 (stereo not shown) [Compound 2m]"
  Experimental result: "0 to 30 min"
- Compound: "CC(NC(C)(C)C)C(=O)c1cccc(F)c1 (stereo not shown) [Compound 2c]"
  Experimental result: "0 to 30 min"
